Assay: PK study in mice (intravenous and oral)
Type: in vivo
Conditions: female, BALB/cAnNCrj-nu/nu, mouse, plasma, intravenous 3 mg/kg
attribute_measured: AUC(0-inf) (ng·h/mL)

{"chem_smiles": "COc1cc2nccc(Oc3ccc(NC(=O)NC4CC4)c(Cl)c3)c2cc1C(N)=O", "observed": 8690}

---

Experiment: PK study in mice (intravenous and oral)
Type: in vivo
Conditions: female, BALB/cAnNCrj-nu/nu, mouse, plasma, oral 3 mg/kg
attribute_measured: MRT

{"chem_smiles": "COc1cc2nccc(Oc3ccc(NC(=O)NC4CC4)c(Cl)c3)c2cc1C(N)=O", "attribute_measured": "MRT", "observed": "3.28 h"}
